system: influenza virus A/WSN/33 (H1N1); test: microbe, parasite or virus in culture; format: cell-based; details: H1N1|WSN, MDCK, 72 h, read-out: Antiviral activity in CPE assay
RECORDED_METRIC: inhibition at 12.5 µM

MOLECULE: COc1ccccc1OCCNC(=O)c1ccc(Nc2ccnc3ccccc23)cc1 [Compound G19]
RESULT: 131%

MOLECULE: O=C(NC1CCC(O)CC1)c1ccc(Nc2ccnc3cc(C(F)(F)F)ccc23)cc1 (centres unmarked) [Compound G10]
RESULT: 48.9%

MOLECULE: O=C(c1ccc(Nc2ccnc3cc(C(F)(F)F)ccc23)cc1)N1CCN(c2ccc(Cl)cc2)CC1 [Compound G17]
RESULT: 33.5%

MOLECULE: O=C(NCc1ccccc1)c1ccc(Nc2ccnc3cc(C(F)(F)F)ccc23)cc1 [Compound G11]
RESULT: 47.7%

MOLECULE: COc1ccccc1OCCNC(=O)c1ccc(Nc2ccnc3cc(C(F)(F)F)ccc23)cc1 [Compound G07]
RESULT: 61.4%

MOLECULE: COc1ccccc1OCCNC(=O)c1ccc(Nc2ccnc3cc(OC(F)(F)F)ccc23)cc1 [Compound G22]
RESULT: 112%

MOLECULE: COc1ccccc1OCCNC(=O)c1ccc(Nc2ccnc3cc([N+](=O)[O-])ccc23)cc1 [Compound G23]
RESULT: 146%

MOLECULE: COc1ccccc1OCCNC(=O)c1ccc(Nc2ccnc3ccc(Br)cc23)cc1 [Compound G24]
RESULT: 21%

----------
MDCK cells survival rate listing for selected molecules.
tested on: MDCK cells; experiment: in vitro; format: cell-based, canine; conditions: dog, 72 h, 12.5 µmol·L−1

MOLECULE: O=C(NCc1ccccc1)c1ccc(Nc2ccnc3cc(C(F)(F)F)ccc23)cc1 [Compound G11]
ASSAY_TARGET: MDCK cells
MDCK cells survival rate: 148.07±0.17%
//
MOLECULE: CCOc1ccc(N2CCN(C(=O)c3ccc(Nc4ccnc5cc(C(F)(F)F)ccc45)cc3)CC2)cc1 [Compound G18]
ASSAY_TARGET: MDCK cells
MDCK cells survival rate: 112.99±2.36%
//
MOLECULE: O=C(NCCO)c1ccc(Nc2ccnc3cc(C(F)(F)F)ccc23)cc1 [Compound G04]
ASSAY_TARGET: MDCK cells
MDCK cells survival rate: 118.54±1.29%
//
MOLECULE: O=C(c1ccc(Nc2ccnc3cc(C(F)(F)F)ccc23)cc1)N1CCN(c2ccc(Cl)cc2)CC1 [Compound G17]
ASSAY_TARGET: MDCK cells
MDCK cells survival rate: 71.49±1.03%
//
MOLECULE: O=C(NCCCN1CCOCC1)c1ccc(Nc2ccnc3cc(C(F)(F)F)ccc23)cc1 [Compound G08]
ASSAY_TARGET: MDCK cells
MDCK cells survival rate: 95.86±1.24%

----------
SMILES_NOTATION: O=C(NCCO)c1ccc(Nc2ccnc3cc(C(F)(F)F)ccc23)cc1
melting point: 262.5 to 264.1 °C

SMILES_NOTATION: O=C(NCc1ccccc1)c1ccc(Nc2ccnc3cc(C(F)(F)F)ccc23)cc1
melting point: 263.4 to 265.8 °C

SMILES_NOTATION: CC(C)NC(=O)c1ccc(Nc2ccnc3cc(C(F)(F)F)ccc23)cc1
melting point: 243.7 to 245.9 °C

SMILES_NOTATION: O=C(NCCCN1CCOCC1)c1ccc(Nc2ccnc3cc(C(F)(F)F)ccc23)cc1
melting point: 207.3 to 209.1 °C

----------
melting point listing for selected compounds.

COMPOUND: COc1ccccc1OCCNC(=O)c1ccc(Nc2ccnc3ccc(Cl)cc23)cc1
melting point: 247.7 to 248.4 °C
//
COMPOUND: COc1ccccc1OCCNC(=O)c1ccc(Nc2ccnc3cc([N+](=O)[O-])ccc23)cc1
melting point: 217 to 218.5 °C
//
COMPOUND: O=C(NC1CCC(O)CC1)c1ccc(Nc2ccnc3cc(C(F)(F)F)ccc23)cc1 (stereo not shown)
melting point: 324 to 325 °C
//
COMPOUND: O=C(NCCCO)c1ccc(Nc2ccnc3cc(C(F)(F)F)ccc23)cc1
melting point: 249.6 to 250.4 °C
//
COMPOUND: Cc1ccccc1N1CCN(C(=O)c2ccc(Nc3ccnc4cc(C(F)(F)F)ccc34)cc2)CC1
melting point: 194.7 to 195.6 °C
//
COMPOUND: CCNC(=O)c1ccc(Nc2ccnc3cc(C(F)(F)F)ccc23)cc1
melting point: 262.8 to 264.5 °C
//
COMPOUND: O=C(O)c1ccc(Nc2ccnc3cc(C(F)(F)F)ccc23)cc1
melting point: 323.7 to 324.9 °C
//
COMPOUND: COc1ccccc1OCCNC(=O)c1ccc(Nc2ccnc3cc(C)ccc23)cc1
melting point: 209.6 to 210.6 °C
//
COMPOUND: O=C(c1ccc(Nc2ccnc3cc(C(F)(F)F)ccc23)cc1)N1CCN(c2cccc(C(F)(F)F)c2)CC1
melting point: 217 to 218.5 °C
//
COMPOUND: CCOc1ccc(N2CCN(C(=O)c3ccc(Nc4ccnc5cc(C(F)(F)F)ccc45)cc3)CC2)cc1
melting point: 210 to 212.3 °C
//
COMPOUND: COc1ccccc1OCCNC(=O)c1ccc(Nc2ccnc3ccccc23)cc1
melting point: 319.5 to 320.2 °C
//
COMPOUND: O=C(c1ccc(Nc2ccnc3cc(C(F)(F)F)ccc23)cc1)N1CCN(c2ccc(OC(F)(F)F)cc2)CC1
melting point: 195.9 to 196.4 °C
//
COMPOUND: O=C(c1ccc(Nc2ccnc3cc(C(F)(F)F)ccc23)cc1)N1CCN(c2ccc(Cl)cc2)CC1
melting point: 242 to 242.9 °C
//
COMPOUND: COc1ccccc1OCCNC(=O)c1ccc(Nc2ccnc3cc(OC(F)(F)F)ccc23)cc1
melting point: 229.5 to 230.7 °C
//
COMPOUND: COc1ccccc1OCCNC(=O)c1ccc(Nc2ccnc3ccc(Br)cc23)cc1
melting point: 240.5 to 241.3 °C
//
COMPOUND: CCN(CC)CCCNC(=O)c1ccc(Nc2ccnc3cc(C(F)(F)F)ccc23)cc1
melting point: 216.5 to 219.3 °C
//
COMPOUND: Cc1ccc(N2CCN(C(=O)c3ccc(Nc4ccnc5cc(C(F)(F)F)ccc45)cc3)CC2)cc1
melting point: 192 to 193.8 °C
//
COMPOUND: O=C(NC1CCCCC1)c1ccc(Nc2ccnc3cc(C(F)(F)F)ccc23)cc1
melting point: 236.5 to 237.3 °C
//
COMPOUND: CCCNC(=O)c1ccc(Nc2ccnc3cc(C(F)(F)F)ccc23)cc1
melting point: 242.5 to 243.4 °C
//
COMPOUND: COc1ccccc1OCCNC(=O)c1ccc(Nc2ccnc3ccc(C(F)(F)F)cc23)cc1
melting point: 225.3 to 227.3 °C
//
COMPOUND: O=C(c1ccc(Nc2ccnc3cc(C(F)(F)F)ccc23)cc1)N1CCOCC1
melting point: 277.9 to 278.7 °C
//
COMPOUND: COc1ccccc1OCCNC(=O)c1ccc(Nc2ccnc3c(C)cccc23)cc1
melting point: 150.2 to 151.7 °C

----------
tested on: MDCK cells; assay: in vitro; type: cell-based, canine; details: dog, 72 h, 25 µmol·L−1

MOLECULE: COc1ccccc1OCCNC(=O)c1ccc(Nc2ccnc3cc(C)ccc23)cc1
MDCK cells survival rate: 80.18±7.27%
--
MOLECULE: COc1ccccc1OCCNC(=O)c1ccc(Nc2ccnc3ccc(Cl)cc23)cc1
MDCK cells survival rate: 85.96±5.73%
--
MOLECULE: COc1ccccc1OCCNC(=O)c1ccc(Nc2ccnc3ccccc23)cc1
MDCK cells survival rate: 93.23±8.08%
--
MOLECULE: O=C(NCCCO)c1ccc(Nc2ccnc3cc(C(F)(F)F)ccc23)cc1
MDCK cells survival rate: 110.22±4.44%
--
MOLECULE: O=C(c1ccc(Nc2ccnc3cc(C(F)(F)F)ccc23)cc1)N1CCN(c2ccc(Cl)cc2)CC1
MDCK cells survival rate: 65.78±1.15%
--
MOLECULE: CC(C)NC(=O)c1ccc(Nc2ccnc3cc(C(F)(F)F)ccc23)cc1
MDCK cells survival rate: 137.54±0.71%
--
MOLECULE: COc1ccccc1OCCNC(=O)c1ccc(Nc2ccnc3ccc(Br)cc23)cc1
MDCK cells survival rate: 71.98±13.89%
--
MOLECULE: O=C(NC1CCC(O)CC1)c1ccc(Nc2ccnc3cc(C(F)(F)F)ccc23)cc1 (centres unmarked)
MDCK cells survival rate: 109.11±15.21%
--
MOLECULE: COc1ccccc1OCCNC(=O)c1ccc(Nc2ccnc3c(C)cccc23)cc1
MDCK cells survival rate: 8.61±0.42%
--
MOLECULE: O=C(NCCCN1CCOCC1)c1ccc(Nc2ccnc3cc(C(F)(F)F)ccc23)cc1
MDCK cells survival rate: 76.43±4.79%
--
MOLECULE: O=C(NC1CCCCC1)c1ccc(Nc2ccnc3cc(C(F)(F)F)ccc23)cc1
MDCK cells survival rate: 124.74±4.87%
--
MOLECULE: O=C(c1ccc(Nc2ccnc3cc(C(F)(F)F)ccc23)cc1)N1CCN(c2ccc(OC(F)(F)F)cc2)CC1
MDCK cells survival rate: 82.80±5.22%
--
MOLECULE: Cc1ccc(N2CCN(C(=O)c3ccc(Nc4ccnc5cc(C(F)(F)F)ccc45)cc3)CC2)cc1
MDCK cells survival rate: 91.16±1.34%
--
MOLECULE: CCOc1ccc(N2CCN(C(=O)c3ccc(Nc4ccnc5cc(C(F)(F)F)ccc45)cc3)CC2)cc1
MDCK cells survival rate: 111.55±2.20%
--
MOLECULE: COc1ccccc1OCCNC(=O)c1ccc(Nc2ccnc3ccc(C(F)(F)F)cc23)cc1
MDCK cells survival rate: 105.52±6.56%
--
MOLECULE: O=C(NCCO)c1ccc(Nc2ccnc3cc(C(F)(F)F)ccc23)cc1
MDCK cells survival rate: 110.54±13.59%
--
MOLECULE: O=C(NCc1ccccc1)c1ccc(Nc2ccnc3cc(C(F)(F)F)ccc23)cc1
MDCK cells survival rate: 123.28±5.69%
